target: IFN-αJ1 (human, UniProt P01567 24-189); test: cell-based or functional assay
measurement label: IC50 (pM), ISRE assay

>>> reported_result("IFWM3328 (antibody, IgG1, V domains shown) VH: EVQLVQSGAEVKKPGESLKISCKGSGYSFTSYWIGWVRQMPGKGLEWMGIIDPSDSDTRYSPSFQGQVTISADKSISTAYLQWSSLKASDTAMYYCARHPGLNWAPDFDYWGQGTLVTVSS VL: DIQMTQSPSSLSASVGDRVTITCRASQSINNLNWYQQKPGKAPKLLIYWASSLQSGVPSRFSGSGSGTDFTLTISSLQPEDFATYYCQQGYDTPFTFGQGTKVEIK")
"1660 pM"
